Attribute: CC50 at 72 h
assay-notes: Cytotoxicity in African green monkey Vero cells assessed as reduction in cell viability incubated for 72 hrs by MTT assay
Assay type: cell-based
assay-conditions: chlorocebus sabaeus
measured-parameter: CC50 at 72 h (mM)

| compound | value-modifier | measured-result |
| --- | --- | --- |
| COC(=O)/C=C1\Nc2ccc(Cl)cc2OC1=O | = | 1.6 |
| O=C1Oc2ccccc2N/C1=C\C(=O)c1c[nH]c2ccccc12 | > | 1.64 |
| COC(=O)/C=C1\Nc2cc(Cl)ccc2OC1=O | = | 1.63 |
| COC(=O)CC1Nc2ccccc2OC1=O (configuration not stated) | = | 1.55 |
| O=C1Oc2ccccc2N/C1=C\C(=O)c1ccccc1 | > | 0.942 |
| NNC(=O)c1ccncc1 | > | 7.3 |
| O=C1Oc2ccccc2N/C1=C\C(=O)c1ccc(Cl)cc1 | = | 1.25 |
| O=C(NNC(=O)c1ccncc1)C(=O)Nc1ccccc1O | = | 1.41 |
| O=C1Oc2ccccc2N/C1=C\C(=O)c1cccc(Cl)c1 | = | 1.61 |
| O=C(NNC(=O)c1ccncc1)C(=O)Nc1cc(Cl)ccc1O | = | 1.2 |
| O=C1Oc2ccccc2N/C1=C\C(=O)c1ccc(-c2ccccc2)cc1 | > | 0.366 |
| O=C1Oc2ccccc2N/C1=C\C(=O)N1CCOCC1 | = | 1.14 |

Sourced from ChEMBL document CHEMBL4433266
